Provenance of the data: patent US6333428A

- target_system: metabotropic glutamate receptors mG1uR2 (Rattus norvegicus, UniProt P31421)
- Construct: expressed in transfected cells
- Sequence (P31421 19-872): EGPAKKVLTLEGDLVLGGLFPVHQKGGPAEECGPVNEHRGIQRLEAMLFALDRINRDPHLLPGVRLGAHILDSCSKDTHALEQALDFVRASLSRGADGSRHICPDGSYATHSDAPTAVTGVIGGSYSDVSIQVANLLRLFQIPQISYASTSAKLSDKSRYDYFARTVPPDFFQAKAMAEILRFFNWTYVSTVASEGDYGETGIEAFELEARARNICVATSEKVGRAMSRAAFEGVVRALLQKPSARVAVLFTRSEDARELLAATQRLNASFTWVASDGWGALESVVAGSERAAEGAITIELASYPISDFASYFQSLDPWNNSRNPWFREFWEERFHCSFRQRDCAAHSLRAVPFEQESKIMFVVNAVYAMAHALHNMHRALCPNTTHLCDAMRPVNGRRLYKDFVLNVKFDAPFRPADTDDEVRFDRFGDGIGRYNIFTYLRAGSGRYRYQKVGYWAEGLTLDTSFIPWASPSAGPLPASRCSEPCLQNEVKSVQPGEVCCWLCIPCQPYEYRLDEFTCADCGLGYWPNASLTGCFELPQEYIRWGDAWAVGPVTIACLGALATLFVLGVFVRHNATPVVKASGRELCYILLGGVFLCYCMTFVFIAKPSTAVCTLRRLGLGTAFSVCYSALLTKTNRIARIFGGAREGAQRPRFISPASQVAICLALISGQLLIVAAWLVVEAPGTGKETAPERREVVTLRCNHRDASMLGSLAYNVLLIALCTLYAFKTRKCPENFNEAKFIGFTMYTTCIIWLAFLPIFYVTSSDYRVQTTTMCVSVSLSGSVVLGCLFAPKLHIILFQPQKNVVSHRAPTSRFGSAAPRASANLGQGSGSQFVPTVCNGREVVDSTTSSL
- method: Effect of Test Compounds on cAMP Accumulation (inhibition of Forskolin-stimulated cAMP accumulation in CHO cells stably expressing mGluR2)
- Format: cell-based
- condition_summary: CHO cells stably expressing mGluR2; 10^-5 M Forskolin; specimens 10^-10 to 10^-4 M; 15 minutes at 37° C.; cAMP EIA kit; agonist
measurement_name: log10 of IC50 (log10 of the value in µM)

| compound | readout_number |
| --- | --- |
| N[C@@]1(C(=O)O)CC[C@@H]2[C@H]1[C@@]2(F)C(=O)O (racemic) [Comp. 1] | -1.47 |
| N[C@H](C(=O)O)[C@H]1C[C@@H]1C(=O)O [L-CCG-I, reference compound] | -0.92 |
| N[C@@]1(C(=O)O)CC(=O)[C@@H]2[C@H]1[C@@]2(F)C(=O)O (racemic) [Comp. 3] | -2.90 |
| N[C@H](C(=O)O)C1[C@@H](C(=O)O)[C@@H]1C(=O)O (stereo partly shown) [DCG IV, reference compound] | -1.01 |
| N[C@@]1(C(=O)O)CC(=O)[C@@H]2[C@H]1[C@@]2(F)C(=O)O (single isomer, unassigned) [Comp. 4] | -3.18 |
| N[C@@]1(C(=O)O)CC[C@@H]2[C@H]1[C@@]2(F)C(=O)O (single isomer, unassigned) [Comp. 2] | -1.78 |
| N[C@@]1(C(=O)O)C[C@H](O)[C@@H]2[C@H]1[C@@]2(F)C(=O)O (racemic) [Comp. 5] | -1.71 |
